// thermal conductivity lookup, one value per entry
- CONDITION INFO: 313 K; 101.33 kPa; Liquid; transient hot wire
MEASURED PARAMETER: thermal conductivity (W/m/K)

{"COMPOUND": "CCn1cc[n+](C)c1.O=S(=O)([N-]S(=O)(=O)C(F)(F)F)C(F)(F)F", "RECORDED RESULT": 0.129}
{"COMPOUND": "CCCCCCCCn1cc[n+](C)c1.O=S(=O)([N-]S(=O)(=O)C(F)(F)F)C(F)(F)F", "RECORDED RESULT": 0.128}
{"COMPOUND": "CCCCCCCCCCCCCC[P+](CCCCCC)(CCCCCC)CCCCCC.O=S(=O)([N-]S(=O)(=O)C(F)(F)F)C(F)(F)F", "RECORDED RESULT": 0.142}
{"COMPOUND": "CCCCCC[n+]1ccn(C)c1.O=S(=O)([N-]S(=O)(=O)C(F)(F)F)C(F)(F)F", "RECORDED RESULT": 0.127}
{"COMPOUND": "CCCC[n+]1ccn(C)c1.O=S(=O)([N-]S(=O)(=O)C(F)(F)F)C(F)(F)F", "RECORDED RESULT": 0.127}
{"COMPOUND": "CCCCCCCCCCCCCC[P+](CCCCCC)(CCCCCC)CCCCCC.[Cl-] [trihexyl(tetradecyl)phosphonium chloride]", "RECORDED RESULT": 0.159}
{"COMPOUND": "CCCCCCCCCCn1cc[n+](C)c1.O=S(=O)([N-]S(=O)(=O)C(F)(F)F)C(F)(F)F", "RECORDED RESULT": 0.13}
{"COMPOUND": "CCCC[N+]1(C)CCCC1.FC(F)(F)C(F)(F)[P-](F)(F)(F)(C(F)(F)C(F)(F)F)C(F)(F)C(F)(F)F", "RECORDED RESULT": 0.106}
